- ASSAYED SYSTEM: human CYP11B2 (Homo sapiens)
- Sequence (P19099 25-503): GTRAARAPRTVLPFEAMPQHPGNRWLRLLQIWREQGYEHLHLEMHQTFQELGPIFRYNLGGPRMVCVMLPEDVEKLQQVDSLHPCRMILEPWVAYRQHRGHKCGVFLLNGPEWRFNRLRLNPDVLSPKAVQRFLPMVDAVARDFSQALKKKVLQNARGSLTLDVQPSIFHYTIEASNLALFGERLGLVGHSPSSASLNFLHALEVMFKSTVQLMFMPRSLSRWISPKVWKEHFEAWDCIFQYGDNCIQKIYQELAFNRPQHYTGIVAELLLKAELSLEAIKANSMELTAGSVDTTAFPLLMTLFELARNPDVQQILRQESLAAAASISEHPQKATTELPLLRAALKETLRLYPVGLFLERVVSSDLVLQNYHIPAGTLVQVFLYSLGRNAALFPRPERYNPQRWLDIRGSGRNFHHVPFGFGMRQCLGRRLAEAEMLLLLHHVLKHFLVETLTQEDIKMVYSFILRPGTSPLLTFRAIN
- MEASUREMENT PROTOCOL: G-402 cellular enzyme assay, human CYP11B2 (aldosterone release, HTRF)
- CONDITION PARAMETERS: G-402 cells expressing human CYP11B2; 1 μM Deoxycorticosterone
READOUT NAME: EC50
A complete answer gives the number followed by the unit.

**Query** Provide EC50 value for the following compound: "CN1C(=O)CCc2cc(-c3cncc(NC(=O)CO)c3)ccc21"
**Result** 715 nM

**Query** Provide EC50 value for the following compound: "CN1C(=O)CCc2cc(-c3cncc(OC[C@@H]4CCCN4C(=O)OC(C)(C)C)c3)ccc21"
**Result** 32 nM

**Query** Provide EC50 value for the following compound: "CCS(=O)(=O)NCc1cncc(-c2ccc3c(c2)CCC(=O)N3C)c1"
**Result** 19 nM

**Query** Provide EC50 value for the following compound: "COC[C@@H]1CCCN1c1cncc(-c2ccc3c(c2)CCC(=O)N3C)c1"
**Result** 20 nM

**Query** Provide EC50 value for the following compound: "CCS(=O)(=O)N1CC[C@@H](Oc2cncc(-c3cc4c(cc3F)N(C)C(=O)CC4)c2)C1"
**Result** 14 nM

All values here come from patent US9260408B2.
